# System under test: T1, IL-10R2-Fc/His (UniProt Q08334 20-220, limits assumed)
# T1 sequence (looked up): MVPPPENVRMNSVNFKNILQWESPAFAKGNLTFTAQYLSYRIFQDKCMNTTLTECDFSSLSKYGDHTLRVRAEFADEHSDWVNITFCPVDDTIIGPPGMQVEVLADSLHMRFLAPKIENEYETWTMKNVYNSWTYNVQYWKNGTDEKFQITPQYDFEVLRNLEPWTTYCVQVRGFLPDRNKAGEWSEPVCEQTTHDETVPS
# Assay: ELISA, IL-10R2-Fc/His coated
Assay readout: Decreased fold of binding to ligand after Conjugating with S48 (fold)
One number for each entry, in fold.

Some binders with recorded Decreased fold of binding to ligand after Conjugating with S48:
| Binder | Meas value |
| --- | --- |
| IL-10 Lys88Cys-S48 (ligand, human, UniProt P22301 19-178, looked up, S48 on Cys 88, mature) SPGQGTQSENSCTHFPGNLPNMLRDLRDAFSRVKTFFQMKDQLDNLLLKESLLEDFKGYLGCQALSEMIQFYLEEVMPQAENQDPDICAHVNSLGENLKTLRLRLRRCHRFLPCENKSKAVEQVKNAFNKLQEKGIYKAMSEFDIFINYIEAYMTMKIRN | 3 |
| IL-10 Arg32Cys-S48 (ligand, human, UniProt P22301 19-178, looked up, S48 on Cys 32, mature) SPGQGTQSENSCTHFPGNLPNMLRDLRDAFSCVKTFFQMKDQLDNLLLKESLLEDFKGYLGCQALSEMIQFYLEEVMPQAENQDPDIKAHVNSLGENLKTLRLRLRRCHRFLPCENKSKAVEQVKNAFNKLQEKGIYKAMSEFDIFINYIEAYMTMKIRN | 9 |

Then there is this binder:
Value lookup for Decreased fold of binding to ligand after Conjugating with S48; key = IL-10 Lys130Cys-S48 (ligand, human, UniProt P22301 19-178, looked up, S48 on Cys 130, mature) SPGQGTQSENSCTHFPGNLPNMLRDLRDAFSRVKTFFQMKDQLDNLLLKESLLEDFKGYLGCQALSEMIQFYLEEVMPQAENQDPDIKAHVNSLGENLKTLRLRLRRCHRFLPCENKSKAVEQVKNAFNCLQEKGIYKAMSEFDIFINYIEAYMTMKIRN 3
